Molecular target: T1, cynoSIRPα (XP_015313155), Extracellular Domain + His-Tag (cynomolgus monkey)
T1 construct: also called CySIRPα XP_015313155; not shown: His-Tag
T1 chain: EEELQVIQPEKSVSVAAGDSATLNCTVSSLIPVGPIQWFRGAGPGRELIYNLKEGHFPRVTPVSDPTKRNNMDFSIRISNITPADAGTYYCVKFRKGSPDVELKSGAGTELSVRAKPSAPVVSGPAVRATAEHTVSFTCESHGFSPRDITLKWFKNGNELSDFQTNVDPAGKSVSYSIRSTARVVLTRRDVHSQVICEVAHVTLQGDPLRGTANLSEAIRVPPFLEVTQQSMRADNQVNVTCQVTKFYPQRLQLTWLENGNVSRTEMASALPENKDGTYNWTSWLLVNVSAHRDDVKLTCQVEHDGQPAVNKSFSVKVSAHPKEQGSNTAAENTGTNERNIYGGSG
Assay: SPR, antibody captured on Protein A/G, ECD-His analyte, steady-state fit
RECORDED METRIC: pKd
// pKd here means minus log10 of the molar concentration (mol/L)

Please review the entries below; each comes with its answer.
[in] Give the measured pKd for Antibody A1 (antibody, human IgG1, kappa, L234A L235A, V domains shown) VH: EVQLVESGGGLVQPGGSLRLSCAASGFTLSSYDMHWVRQAPGKGLEWVSAIGTAGDTYYTGSVKGRFTISRENAKNSLYLQMNSLRADDTAVYYCVRGGVWDDAFDIWGQGTMVTVSS VL: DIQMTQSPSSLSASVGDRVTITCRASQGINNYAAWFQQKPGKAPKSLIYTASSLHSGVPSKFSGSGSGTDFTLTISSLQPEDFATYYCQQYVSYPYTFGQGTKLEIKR
[out] 6.37

[in] Give the measured pKd for Antibody A6 (antibody, human IgG1, kappa, L234A L235A, V domains shown) VH: EVQLVESGGGLVQPGGSLRLSCAASGFTLSSYDMHWVRQAPGKGLEWVSAIGTAGDTYYTGSVKGRFTISRENAKNSLYLQMNSLRAEDTAVYYCVRGGVWDDAFDIWGQGTMVTVSS VL: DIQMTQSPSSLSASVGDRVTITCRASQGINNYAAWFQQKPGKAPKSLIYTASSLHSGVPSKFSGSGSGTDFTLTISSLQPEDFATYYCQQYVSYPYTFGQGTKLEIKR
[out] 6.38

Pending binder:
[in] Give the measured pKd for Antibody A3 (antibody, human IgG1, kappa, L234A L235A, V domains shown) VH: EVQLVESGGGLVQPGGSLRLSCAASGFTLSSYDMHWVRQATGKGLEWVSAIGTAGDTYYTGSVKGRFTISRENAKNSLYLQMNSLRASDTAVYYCVRGGVWDDAFDIWGQGTMVTVSS VL: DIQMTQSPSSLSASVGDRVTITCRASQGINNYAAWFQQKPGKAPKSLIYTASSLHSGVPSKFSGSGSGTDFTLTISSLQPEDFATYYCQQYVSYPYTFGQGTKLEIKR
[out] 6.32
